Overview of recorded Kd for various molecules
assay notes: Approximate Kd summary (Table 4) / measured binder ranking, method not stated
Format: binding
test parameters: Ligand Target 25-hydroxycholecalciferol
readout name: Kd (nM)

>>> readout_number("CDL1: designed 25-D3 binder based on scaffold PDB ID 1Z1S, a putative isomerase; 8 mutations from 1Z1S (protein) SGREQGHMNAKEILVHALRLVENGDARGFCDLFHPEGVMEFPYAPPGYKTRFEGRETIWAHMRLFPEHLTIRFTDVQFYETADPDLAIGEFHGDGVATVSGGKLAQDFISVLRTRDGQILLSRIFWNPLRHLEALGGVEAAAKIVQGA")
1300
>>> readout_number("CDL1.1: evolved variant of CDL1 with mutations P46S, R55A, H68P, G136V; truncated as well as mutated from 6234 (protein) NLYFQGHMNAKEILVHALRLVENGDARGFCDLFHPEGVMEFPYAPSGYKTRFEGAETIWAHMRLFPEPLTIRFTDVQFYETADPDLAIGEFHGDGVATVSGGKLAQDFISVLRTRDGQILLSRIFWNPLRHLEALV")
229
>>> readout_number("CDL2: designed 25-D3 binding protein based on scaffold PDB ID 3HX8, a putative ketosteroid isomerase (protein) GQSAKEAIEAALADFVKAYNSKDAAGVASKYMDDAAIFPLDMARVDGRQNIQKLWQGLMDMGVSELKLTTLDVQESGDFAFESGSFSLKGPGKDSKLVDVAGKYVVVWRKGQDGGWKLYRTISNLDPAK")
2100
>>> readout_number("CDL2.1: evolved variant of CDL2 incorporating 10 mutations scattered around the protein (protein) DQSAKEAIEAALADFVKVYNSKDAAGVASKYMDDAAIFPLDMAPVDGRQNIQKLWQGLMDMGVSEPKFTTLNVQKSGDFAFESGSFSLKGPGKDSKLVDIAGIYVEVWRKGQDGGWKLYRTIANLDPAK")
319

Values from patent US20170322229A1
